study target: Cas9 (His-Cas9) (Streptococcus pyogenes, UniProt Q99ZW2 Q99ZW2:1-1368)
Sequence (Q99ZW2 whole entry, one chain of several): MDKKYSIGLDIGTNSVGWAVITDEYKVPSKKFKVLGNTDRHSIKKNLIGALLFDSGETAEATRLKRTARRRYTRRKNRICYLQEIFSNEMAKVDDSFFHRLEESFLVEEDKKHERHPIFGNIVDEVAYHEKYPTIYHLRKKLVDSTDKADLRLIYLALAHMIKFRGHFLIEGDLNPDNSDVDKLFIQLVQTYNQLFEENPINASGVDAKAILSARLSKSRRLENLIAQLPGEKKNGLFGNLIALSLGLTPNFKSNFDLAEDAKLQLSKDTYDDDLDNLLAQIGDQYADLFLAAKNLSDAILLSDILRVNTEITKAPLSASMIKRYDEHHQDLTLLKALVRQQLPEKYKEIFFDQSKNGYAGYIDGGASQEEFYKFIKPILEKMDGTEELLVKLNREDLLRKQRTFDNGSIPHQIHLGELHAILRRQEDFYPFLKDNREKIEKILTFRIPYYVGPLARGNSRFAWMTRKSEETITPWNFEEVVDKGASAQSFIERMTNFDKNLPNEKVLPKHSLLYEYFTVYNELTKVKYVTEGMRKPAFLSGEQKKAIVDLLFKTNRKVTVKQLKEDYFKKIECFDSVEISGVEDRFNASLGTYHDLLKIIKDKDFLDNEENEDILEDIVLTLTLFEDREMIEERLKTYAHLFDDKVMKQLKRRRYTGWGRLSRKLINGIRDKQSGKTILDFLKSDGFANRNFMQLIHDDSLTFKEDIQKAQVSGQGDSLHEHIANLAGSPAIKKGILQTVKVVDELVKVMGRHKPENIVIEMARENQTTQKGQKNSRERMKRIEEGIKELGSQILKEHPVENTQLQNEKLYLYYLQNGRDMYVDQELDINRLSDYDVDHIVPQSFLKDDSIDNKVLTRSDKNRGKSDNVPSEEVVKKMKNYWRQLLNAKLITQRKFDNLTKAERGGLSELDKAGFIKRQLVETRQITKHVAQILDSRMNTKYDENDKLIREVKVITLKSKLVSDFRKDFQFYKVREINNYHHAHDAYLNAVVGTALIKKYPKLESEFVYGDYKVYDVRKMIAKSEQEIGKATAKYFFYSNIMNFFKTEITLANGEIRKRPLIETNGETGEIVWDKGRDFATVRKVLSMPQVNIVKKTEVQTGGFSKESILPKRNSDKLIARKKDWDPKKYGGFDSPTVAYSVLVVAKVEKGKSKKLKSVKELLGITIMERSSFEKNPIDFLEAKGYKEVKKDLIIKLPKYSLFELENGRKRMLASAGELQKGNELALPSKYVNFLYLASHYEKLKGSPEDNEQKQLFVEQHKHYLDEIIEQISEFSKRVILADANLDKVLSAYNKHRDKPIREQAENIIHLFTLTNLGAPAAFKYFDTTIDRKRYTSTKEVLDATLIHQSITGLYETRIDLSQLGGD
assay method text: SPR; 5'-biotin s21 immobilized; Cas9 without guide; 20 mM Tris pH 8.0, 150 mM NaCl, 1 mM MgCl2
experimental setup: tags: His tag, expressed in E. coli; hairpin (stem-loop)
Protocol: In order to calculate the dissociation constant (Kd) between Cas9 protein and each nucleic acid aptamer, surface plasmon resonance analysis was conducted. The detailed experimental approach was as follows. 5′-Biotinylated s21 was prepared and was immobilized on a streptavidin sensor chip (GE Healthcare Japan Corp.). […] Kd was calculated with Biacore evaluation software package (GE Healthcare Japan Corp., Ver 2.0). […]
outcome measure: pKd
A value of pKd is the negative decimal logarithm of a concentration given in moles per litre.

# get_value(readout='pKd', item= GAGGCTCTCACATCGCGCCTTTCCCCAGCTTTCGGTGTGAGAGCCTC (ssDNA) [s21] )
9.24
